These data points were gathered from ChEMBL document CHEMBL5137094.

Target: cAMP-dependent protein kinase catalytic subunit alpha (Homo sapiens)
Assay: Binding affinity to human recombinant PKAC-alpha assessed as reduction in TGLI signal at 10 uM pretreated with compound followed by ARC-1063 fluorescent probe addition by time-gated luminescence intensity based displacement assay
Conditions: time 60-480 min, TDE = time-dependent effect
measurement.label: Activity

molecular.string	result
CC[C@H](C)[C@H](NC(=O)CCC(=O)N[C@@H](CCCCNC(=O)[C@@H](CCCNC(=N)N)NC(=O)CCCCCCCC(=O)N1CCN(c2ncnc3[nH]ccc23)CC1)C(=O)N[C@H](CCCNC(=N)N)C(=O)N[C@H](CCCNC(=N)N)C(=O)N[C@H](CCCNC(=N)N)C(N)=O)C(=O)NCC(=O)CF	Tde
CC[C@H](C)[C@H](NC(=O)CCC(=O)N[C@@H](CCCCNC(=O)[C@@H](CCCNC(=N)N)NC(=O)CCCCCCCC(=O)N1CCN(c2ncnc3[nH]ccc23)CC1)C(=O)N[C@H](CCCNC(=N)N)C(=O)N[C@H](CCCNC(=N)N)C(N)=O)C(=O)NCC(=O)CF	Tde
CC[C@H](C)[C@H](NC(=O)CCC(=O)N[C@@H](CCCCNC(=O)[C@@H](CCCNC(=N)N)NC(=O)CCCCCCCC(=O)N1CCN(c2ncnc3[nH]ccc23)CC1)C(N)=O)C(=O)NCC(=O)CF	Tde
CC[C@H](C)[C@H](NC(=O)CCC(=O)N[C@@H](CCCCNC(=O)[C@@H](CCCNC(=N)N)NC(=O)CCCCCCCC(=O)N1CCN(c2ncnc3[nH]ccc23)CC1)C(=O)N[C@H](CCCNC(=N)N)C(N)=O)C(=O)NCC(=O)CF	Tde
